# Measured On: Alpha-1A adrenergic receptor (Homo sapiens, UniProt P35348)
# Sequence (P35348 whole entry): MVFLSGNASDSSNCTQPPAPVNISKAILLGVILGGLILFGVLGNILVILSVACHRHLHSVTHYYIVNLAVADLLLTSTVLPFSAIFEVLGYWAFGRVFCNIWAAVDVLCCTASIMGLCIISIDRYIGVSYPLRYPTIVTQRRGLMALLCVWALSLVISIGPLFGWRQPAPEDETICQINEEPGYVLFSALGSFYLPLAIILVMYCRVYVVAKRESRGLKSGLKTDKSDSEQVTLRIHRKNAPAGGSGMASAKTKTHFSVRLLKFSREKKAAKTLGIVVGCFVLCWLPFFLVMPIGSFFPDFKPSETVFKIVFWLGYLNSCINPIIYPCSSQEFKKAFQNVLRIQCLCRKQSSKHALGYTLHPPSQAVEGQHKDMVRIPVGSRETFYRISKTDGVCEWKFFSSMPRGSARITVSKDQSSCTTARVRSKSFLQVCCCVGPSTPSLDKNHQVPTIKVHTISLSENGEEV
pIC50: −log10 of the molar value.

[
  {
    "Entry Smiles": "CC1(C)OC(=O)N([C@H]2CC[C@H](c3cnc(N)c(-c4ncccn4)c3)CC2)[C@H]1c1ccccc1",
    "pIC50": "< 4.31"
  }
]

* * *

# Measured On: Beta-1 adrenergic receptor (Homo sapiens)
# Sequence (P08588 whole entry): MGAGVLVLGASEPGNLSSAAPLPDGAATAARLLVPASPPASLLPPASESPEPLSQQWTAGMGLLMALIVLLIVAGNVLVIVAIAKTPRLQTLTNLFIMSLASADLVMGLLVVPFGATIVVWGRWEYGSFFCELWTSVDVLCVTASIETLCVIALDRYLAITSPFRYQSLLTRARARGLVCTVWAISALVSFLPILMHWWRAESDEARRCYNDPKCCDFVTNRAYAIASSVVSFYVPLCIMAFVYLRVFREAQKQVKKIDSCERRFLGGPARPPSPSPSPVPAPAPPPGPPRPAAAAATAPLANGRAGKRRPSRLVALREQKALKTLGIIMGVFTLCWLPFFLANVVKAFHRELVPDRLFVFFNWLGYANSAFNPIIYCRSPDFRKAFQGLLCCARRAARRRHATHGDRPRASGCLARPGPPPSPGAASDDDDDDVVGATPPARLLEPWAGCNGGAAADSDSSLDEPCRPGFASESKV

[
  {
    "Entry Smiles": "CC1(C)OC(=O)N([C@H]2CC[C@H](c3cnc(N)c(-c4ncccn4)c3)CC2)[C@H]1c1ccccc1",
    "IC50": "> 48.5 µM"
  }
]

* * *

Listing: half-life of selected molecules
# Assay Remarks: Half life in CD1 mouse at 30 mg/kg, po
# Type: ADME, organism-based
# Design: dose 30 mg/kg, route oral
# Measurement Context: in vivo
Recorded Metric: half-life (h)

[
  {
    "Entry Smiles": "CC1(C)OC(=O)N([C@H]2CC[C@H](c3cnc(N)c(-c4ncccn4)c3)CC2)[C@H]1c1ccccc1",
    "Observed Measurement": 3.5
  },
  {
    "Entry Smiles": "CC1(C)OC(=O)N(c2ccc(-c3cnc(N)c(-c4ncccn4)c3)cc2)[C@H]1c1ccccc1",
    "Observed Measurement": 3.7
  }
]

* * *

# Measured On: UniProt P14416
# Sequence (P14416 whole entry): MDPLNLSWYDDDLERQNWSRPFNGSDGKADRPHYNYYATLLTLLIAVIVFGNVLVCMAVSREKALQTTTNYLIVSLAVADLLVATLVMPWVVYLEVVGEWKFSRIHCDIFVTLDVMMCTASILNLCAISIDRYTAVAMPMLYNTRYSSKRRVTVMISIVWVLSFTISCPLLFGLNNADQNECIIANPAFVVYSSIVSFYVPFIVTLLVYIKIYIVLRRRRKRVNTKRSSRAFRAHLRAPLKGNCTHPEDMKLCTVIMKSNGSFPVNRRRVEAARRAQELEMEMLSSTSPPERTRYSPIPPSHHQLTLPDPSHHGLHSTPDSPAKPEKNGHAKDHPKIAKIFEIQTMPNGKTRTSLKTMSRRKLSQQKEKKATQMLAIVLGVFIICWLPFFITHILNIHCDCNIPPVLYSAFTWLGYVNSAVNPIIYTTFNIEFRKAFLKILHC
# Assay Remarks: Binding affinity to dopamine D2 receptor (unknown origin)
pIC50: −log10 of the molar value.
Recorded Metric: pIC50

[
  {
    "Entry Smiles": "CC1(C)OC(=O)N([C@H]2CC[C@H](c3cnc(N)c(-c4ncccn4)c3)CC2)[C@H]1c1ccccc1",
    "Recorded Metric": "pIC50",
    "Observed Measurement": "< 4.31"
  }
]

* * *

# Assay Remarks: Terminal plasma concentration in athymic nude mouse xenografted with human DLD1 cells at 50 mg/kg, po bid for 3 days
# Format: ADME, organism-based, DLD-1
# Parameters: dose 50 mg/kg, route oral
# Measurement Context: read-out: Cp(T)
Recorded Metric: concentration at 72 h (nM)

[
  {
    "Entry Smiles": "CC1(C)OC(=O)N([C@H]2CC[C@H](c3cnc(N)c(-c4ncccn4)c3)CC2)[C@H]1c1ccccc1",
    "Observed Measurement": 120
  }
]

* * *

# Assay Remarks: Cytotoxicity against human DLD1 cells
# Format: functional, cell-based
# Measurement Context: DLD-1
pIC50: −log10 of the molar value.

[
  {
    "Entry Smiles": "CC1(C)OC(=O)N([C@H]2CC[C@H](c3cnc(N)c(-c4ncccn4)c3)CC2)[C@H]1c1ccccc1",
    "pIC50": 5.52
  }
]
